Test system: PC-3 prostate
METHOD SUMMARY: NCI-60 one-dose screen, 48 h
MEASUREMENT SETUP: 10 µM unless noted
Experimental: Growth inhibition of the PC-3 human tumor cell line is measured as a screen for anti-cancer activity. Cells are grown in 96 well plates and exposed to the test compound for 48 hours. Compounds are tested at a single concentration, which is 10^-5 M for most compounds. The reported endpoint is percent growth (GI% or GIPRCNT), where numbers from 0 - 100% represent growth inhibition, and numbers from -100% - 0 represent cell death. For example, a value of 40 represents 60% growth inhibition. […]
The panel holds about 83,000 compounds, 20% with a hit somewhere; the sample as a whole holds those more often. Active and inactive are the calls of the source. Rule for the calls: active = growth percent below 10; inactive = the rest.
Assign a class; possible classes are T for active, F for inactive

COMPOUND	TEST SYSTEM	GROUP LABEL
CCOc1nc(-c2ccccc2)cc2c(O)c(C(=O)n3nc(C)cc3C)[nH]c(=O)c12	PC-3 prostate	F

Query block: For Cc1ccc2c(c1)O/C(=C\c1ccc([N+](=O)[O-])o1)C2=O , which call appears in the assay record?
Result block: T

Query block: For CN1C(=O)/C(=C/c2nc(-c3cccc(F)c3)n3ccccc23)c2ccccc21 , what call appears in the results of this test?
Result block: F

Query block: What outcome does the record of this test show for CCCCN(CCCC)CCCOC(=O)c1ccc(N)cc1 ?
Result block: F

Query block: Any idea what this test logged for COc1cc(C2NC(c3ccc(Cl)cc3)C(C)/C(=N/NC(N)=S)C2C)cc(OC)c1OC (stereo not given) ?
Result block: F

Query block: Hey, what did the test say about O=C(Nc1ccc(Cl)cc1)Nc1ccc(Nc2nncc3ccccc23)cc1 ?
Result block: T

Query block: Record lookup: outcome of this test for Cc1nn(-c2ccc(Br)cc2)c2nc3c(nc12)C(=O)C(=O)c1ccccc1-3 ?
Result block: F

Query block: Entry CCCCCCCCCCC[C@@H](C[C@H]1OC(=O)[C@H]1CCCCCC)OC(=O)[C@@H](CC(C)C)NC=O : call = ?
Result block: F

Query block: I'd appreciate the recorded outcome for C[C@@H]1CC[C@H]2[C@@H](C)C(O)O[C@@H]3O[C@]4(C)CC[C@@H]1[C@]32OO4 (stereo not given in full) from this test.
Result block: F

Query block: Hi, sorry to bother you, what did the test record for CC(C)(C)c1cc(O)c(O)c(C(C)(C)C)c1 ?
Result block: F

* * *

Test system: CCRF-CEM leukemia
METHOD SUMMARY: NCI-60 one-dose screen, 48 h
MEASUREMENT SETUP: 10 µM unless noted
The panel holds about 83,000 compounds, 20% with a hit somewhere; the sample as a whole holds those more often. Active and inactive are the calls of the source. How the source made its calls: active means growth percent below 10; inactive means the rest.
Outcome (select one): yes (1) for active, no (0) for inactive

COMPOUND	TEST SYSTEM	GROUP LABEL
O=C(CCc1nnc(Cn2ccnc2)o1)c1nc2ccccc2[nH]1	CCRF-CEM leukemia	no (0)
COC(=O)CCC1=C(C)/C(=C/c2[nH]c(-c3ccc[nH]3)cc2OC)N=C1C	CCRF-CEM leukemia	yes (1)
COc1cc(/C=C/C(=O)N2CCN(C(=O)/C=C/c3ccccc3)CC2)cc(OC)c1OC	CCRF-CEM leukemia	no (0)
O=C(Nc1cccc(-n2cc(-c3ccncc3)c(-c3ccc(O)c(Cl)c3)n2)c1)Nc1ccc(Cl)c(C(F)(F)F)c1	CCRF-CEM leukemia	yes (1)

Query block: Would you mind telling me which call this test gave O=c1[nH]c(=O)n(C2CC(O)C(CO)O2)cc1C(F)(F)F (stereo not given) ?
Result block: yes (1)

Taken from PubChem BioAssay (NCI).
